Biological target: PI3Kγ (Homo sapiens, UniProt P48736)
Construct: purchased Life Technologies (assay run by the vendor)
Sequence (P48736 whole entry): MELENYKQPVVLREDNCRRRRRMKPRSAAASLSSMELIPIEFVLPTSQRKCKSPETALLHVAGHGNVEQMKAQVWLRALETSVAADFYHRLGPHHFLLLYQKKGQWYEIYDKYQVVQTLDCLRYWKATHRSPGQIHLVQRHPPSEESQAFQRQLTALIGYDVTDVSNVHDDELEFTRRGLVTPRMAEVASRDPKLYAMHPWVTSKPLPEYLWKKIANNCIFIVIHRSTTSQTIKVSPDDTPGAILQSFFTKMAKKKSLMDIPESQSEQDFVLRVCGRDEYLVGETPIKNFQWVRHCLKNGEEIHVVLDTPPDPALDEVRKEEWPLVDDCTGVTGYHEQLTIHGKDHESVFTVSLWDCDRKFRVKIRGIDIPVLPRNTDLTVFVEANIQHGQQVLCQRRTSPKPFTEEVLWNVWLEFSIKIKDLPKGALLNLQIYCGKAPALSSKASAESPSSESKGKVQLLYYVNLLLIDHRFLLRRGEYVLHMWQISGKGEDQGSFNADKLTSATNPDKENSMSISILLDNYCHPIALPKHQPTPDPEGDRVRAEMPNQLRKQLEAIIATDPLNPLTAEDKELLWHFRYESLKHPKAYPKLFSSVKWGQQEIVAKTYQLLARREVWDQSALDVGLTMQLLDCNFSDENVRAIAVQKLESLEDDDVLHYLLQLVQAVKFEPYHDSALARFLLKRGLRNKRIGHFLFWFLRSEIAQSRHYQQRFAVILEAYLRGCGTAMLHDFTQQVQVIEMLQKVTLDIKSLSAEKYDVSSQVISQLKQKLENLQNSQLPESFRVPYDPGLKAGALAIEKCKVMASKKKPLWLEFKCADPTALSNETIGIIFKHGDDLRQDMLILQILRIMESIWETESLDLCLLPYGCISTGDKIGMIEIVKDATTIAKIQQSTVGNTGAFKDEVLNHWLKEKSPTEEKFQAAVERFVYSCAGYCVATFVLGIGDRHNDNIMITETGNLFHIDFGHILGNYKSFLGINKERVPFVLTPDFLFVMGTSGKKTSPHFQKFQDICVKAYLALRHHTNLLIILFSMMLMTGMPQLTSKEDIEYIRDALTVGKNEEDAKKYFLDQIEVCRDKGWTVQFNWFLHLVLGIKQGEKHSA
Test: PI3K subtype enzyme inhibition
Assay type: biochemical
Conditions: read-out: PI3Kγ IC50
ASSAY METRIC: IC50 (nM)

1. CC(=O)N1CCN(c2cnc3ccc(-c4cnc(Cl)c(NS(=O)(=O)c5ccc(F)cc5)c4)cc3n2)CC1 [ST-5-28] = 0.71
2. NOCCOCCOCCOCCC(=O)N1CCN(c2cnc3ccc(-c4cnc(Cl)c(NS(=O)(=O)c5ccc(F)cc5)c4)cc3n2)CC1 [ST-5-29] = 30.2
3. O=S(=O)(Nc1cc(-c2ccc3ncc(N4CCNCC4)nc3c2)cnc1Cl)c1ccc(F)cc1 [ST-5-27] = 514
4. O=C(NOCCOCCOCCOCCC(=O)N1CCN(c2cnc3ccc(-c4cnc(Cl)c(NS(=O)(=O)c5ccc(F)cc5)c4)cc3n2)CC1)c1ccc(F)c(F)c1Nc1ccc(I)cc1F [ST-182] = 34.1

----------
Biological target: PI3Kγ (Homo sapiens)
Construct: purchased Life Technologies (assay run by the vendor)
Test: PI3K subtype enzyme inhibition
Assay type: biochemical
Conditions: table of additional PI3K inhibitors; read-out: PI3Kγ IC50
pIC50: −log10 of the molar value.
ASSAY METRIC: pIC50

1) OCCNc1nc(N2CCOCC2)nc(-n2c(C(F)F)nc3ccccc32)n1 = 7.27
2) CNC(=O)CCNc1nc(N2CCOCC2)nc(-n2c(C(F)F)nc3ccccc32)n1 = 7.17
3) CNCCNc1nc(N2CCOCC2)nc(-n2c(C(F)F)nc3ccccc32)n1 = 6.17
4) CC(=O)N1CCN(c2nc(N3CCOCC3)nc(-n3c(C(F)F)nc4ccccc43)n2)CC1 = 7.68
5) COCCNc1nc(N2CCOCC2)nc(-n2c(C(F)F)nc3ccccc32)n1 = 7.19
6) NCCNc1nc(N2CCOCC2)nc(-n2c(C(F)F)nc3ccccc32)n1 = 6.11
7) NOCCOCCOCCOCCC(=O)N1CCN(c2nc(N3CCOCC3)nc(-n3c(C(F)F)nc4ccccc43)n2)CC1 = 6.85
8) O=C(O)CCNc1nc(N2CCOCC2)nc(-n2c(C(F)F)nc3ccccc32)n1 = 7.65

----------
Target: PI3Kδ (Homo sapiens, UniProt O00329)
Construct: purchased Life Technologies (assay run by the vendor)
Sequence (O00329 whole entry): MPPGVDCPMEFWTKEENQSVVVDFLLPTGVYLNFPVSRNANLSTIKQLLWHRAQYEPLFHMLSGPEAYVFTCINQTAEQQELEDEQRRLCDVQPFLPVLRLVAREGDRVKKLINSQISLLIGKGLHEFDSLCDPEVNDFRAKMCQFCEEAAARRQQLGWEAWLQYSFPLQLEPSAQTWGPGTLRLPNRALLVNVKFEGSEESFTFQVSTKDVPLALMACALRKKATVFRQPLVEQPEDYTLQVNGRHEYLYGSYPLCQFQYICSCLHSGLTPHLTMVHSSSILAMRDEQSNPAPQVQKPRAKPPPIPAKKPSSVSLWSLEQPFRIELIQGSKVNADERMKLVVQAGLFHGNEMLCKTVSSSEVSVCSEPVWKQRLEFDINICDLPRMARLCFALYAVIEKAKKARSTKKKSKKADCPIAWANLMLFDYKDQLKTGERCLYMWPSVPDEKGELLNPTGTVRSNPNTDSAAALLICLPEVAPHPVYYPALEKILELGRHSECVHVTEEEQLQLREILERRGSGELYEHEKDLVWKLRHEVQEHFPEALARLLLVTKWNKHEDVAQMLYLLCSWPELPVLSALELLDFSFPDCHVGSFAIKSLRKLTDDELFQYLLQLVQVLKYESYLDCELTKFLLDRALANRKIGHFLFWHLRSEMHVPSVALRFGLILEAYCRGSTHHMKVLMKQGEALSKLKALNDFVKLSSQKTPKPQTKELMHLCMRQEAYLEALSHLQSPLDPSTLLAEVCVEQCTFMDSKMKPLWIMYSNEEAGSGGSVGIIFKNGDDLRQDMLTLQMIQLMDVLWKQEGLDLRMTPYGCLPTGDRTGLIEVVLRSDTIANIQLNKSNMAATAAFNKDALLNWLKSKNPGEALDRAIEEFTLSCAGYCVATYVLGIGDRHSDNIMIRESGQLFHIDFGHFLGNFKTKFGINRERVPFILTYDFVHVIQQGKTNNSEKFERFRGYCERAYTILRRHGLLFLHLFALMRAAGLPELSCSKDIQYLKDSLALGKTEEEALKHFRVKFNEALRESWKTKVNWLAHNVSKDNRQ
Sequence (P27986 whole entry partner): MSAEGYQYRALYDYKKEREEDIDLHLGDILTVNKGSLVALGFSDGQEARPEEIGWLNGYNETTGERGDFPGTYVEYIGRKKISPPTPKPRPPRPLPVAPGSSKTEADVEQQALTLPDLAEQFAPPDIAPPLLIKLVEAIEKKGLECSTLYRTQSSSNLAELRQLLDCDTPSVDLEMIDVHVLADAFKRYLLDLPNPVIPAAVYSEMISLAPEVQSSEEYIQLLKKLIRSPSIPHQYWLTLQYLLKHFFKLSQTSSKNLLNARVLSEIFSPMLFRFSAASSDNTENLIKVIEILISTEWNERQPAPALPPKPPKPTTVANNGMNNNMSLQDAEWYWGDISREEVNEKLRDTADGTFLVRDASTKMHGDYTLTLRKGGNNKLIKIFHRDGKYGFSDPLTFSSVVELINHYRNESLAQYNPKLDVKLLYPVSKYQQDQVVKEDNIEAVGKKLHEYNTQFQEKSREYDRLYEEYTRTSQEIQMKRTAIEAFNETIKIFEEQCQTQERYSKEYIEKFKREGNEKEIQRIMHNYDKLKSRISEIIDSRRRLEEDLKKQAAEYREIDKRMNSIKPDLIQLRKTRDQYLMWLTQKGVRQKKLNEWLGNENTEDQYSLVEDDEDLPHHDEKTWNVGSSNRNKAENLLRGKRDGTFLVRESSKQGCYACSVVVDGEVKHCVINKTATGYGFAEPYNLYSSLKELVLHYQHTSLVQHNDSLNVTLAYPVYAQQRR
Test: PI3K subtype enzyme inhibition
Type: biochemical
Conditions: read-out: PI3K Subtype Enzyme Inhibition Data IC50 PI3Kδ
Listed below: IC50 values for each entry.
ASSAY METRIC: IC50 (nM)

1) O=C(O)CCNc1nc(N2CCOCC2)nc(-n2c(C(F)F)nc3ccccc32)n1 [ST-5-25] = 60
2) CN(CCOCCOCCONC(=O)c1ccc(F)c(F)c1Nc1ccc(I)cc1F)CC[N+](C)(C)CCOCCOCCC(=O)N1CCN(c2nc(N3CCOCC3)nc(-n3c(C(F)F)nc4ccccc43)n2)CC1 [ST-5-05] = 56
3) CNCCNc1nc(N2CCOCC2)nc(-n2c(C(F)F)nc3ccccc32)n1 [ST-5-02] = 135
4) NCCNc1nc(N2CCOCC2)nc(-n2c(C(F)F)nc3ccccc32)n1 [ST-177] = 291
5) OCCNc1nc(N2CCOCC2)nc(-n2c(C(F)F)nc3ccccc32)n1 [ST-187] = 8.1
6) CN(CCOCCOCCONC(=O)c1ccc(F)c(F)c1Nc1ccc(I)cc1F)CCN(C)CCOCCOCCC(=O)N1CCN(c2nc(N3CCOCC3)nc(-n3c(C(F)F)nc4ccccc43)n2)CC1 [ST-180] = 52
7) CC(=O)NCCNc1nc(N2CCOCC2)nc(-n2c(C(F)F)nc3ccccc32)n1 [ST-5-22] = 9.5
8) COCCNc1nc(N2CCOCC2)nc(-n2c(C(F)F)nc3ccccc32)n1 [ST-178] = 17
9) CNC(=O)CCNc1nc(N2CCOCC2)nc(-n2c(C(F)F)nc3ccccc32)n1 [ST-5-21] = 26
10) O=C(NOCCOCCOCCOCCC(=O)N1CCN(c2nc(N3CCOCC3)nc(-n3c(C(F)F)nc4ccccc43)n2)CC1)c1ccc(F)c(F)c1Nc1ccc(I)cc1F [ST-168] = 41.7

----------
// reported pIC50 per item
Target: PI3Kγ (Homo sapiens, UniProt P48736)
Construct: purchased Life Technologies (assay run by the vendor)
Assay: PI3K subtype enzyme inhibition
Type: biochemical
Settings: mean ± SEM; read-out: PI3K Subtype Inhibition Activity PI3Kγ
pIC50: −log10 of the molar value.
ASSAY METRIC: pIC50

1) O=C(NOCCOCCOCCOCCC(=O)N1CCN(c2nc(N3CCOCC3)nc(-n3c(C(F)F)nc4ccccc43)n2)CC1)c1ccc(F)c(F)c1Nc1ccc(I)cc1F = 5.64
2) FC(F)c1nc2ccccc2n1-c1nc(N2CCNCC2)nc(N2CCOCC2)n1 = 5.73
3) O=C(NOCCOCCOCCOCCN1CCN(c2nc(N3CCOCC3)nc(-n3c(C(F)F)nc4ccccc43)n2)CC1)c1ccc(F)c(F)c1Nc1ccc(I)cc1F = 5.24

----------
Reported values of pIC50 for individual entries
Target: PI3Kα (Homo sapiens, UniProt P42336)
Construct: purchased Life Technologies (assay run by the vendor)
Sequence (P42336 whole entry): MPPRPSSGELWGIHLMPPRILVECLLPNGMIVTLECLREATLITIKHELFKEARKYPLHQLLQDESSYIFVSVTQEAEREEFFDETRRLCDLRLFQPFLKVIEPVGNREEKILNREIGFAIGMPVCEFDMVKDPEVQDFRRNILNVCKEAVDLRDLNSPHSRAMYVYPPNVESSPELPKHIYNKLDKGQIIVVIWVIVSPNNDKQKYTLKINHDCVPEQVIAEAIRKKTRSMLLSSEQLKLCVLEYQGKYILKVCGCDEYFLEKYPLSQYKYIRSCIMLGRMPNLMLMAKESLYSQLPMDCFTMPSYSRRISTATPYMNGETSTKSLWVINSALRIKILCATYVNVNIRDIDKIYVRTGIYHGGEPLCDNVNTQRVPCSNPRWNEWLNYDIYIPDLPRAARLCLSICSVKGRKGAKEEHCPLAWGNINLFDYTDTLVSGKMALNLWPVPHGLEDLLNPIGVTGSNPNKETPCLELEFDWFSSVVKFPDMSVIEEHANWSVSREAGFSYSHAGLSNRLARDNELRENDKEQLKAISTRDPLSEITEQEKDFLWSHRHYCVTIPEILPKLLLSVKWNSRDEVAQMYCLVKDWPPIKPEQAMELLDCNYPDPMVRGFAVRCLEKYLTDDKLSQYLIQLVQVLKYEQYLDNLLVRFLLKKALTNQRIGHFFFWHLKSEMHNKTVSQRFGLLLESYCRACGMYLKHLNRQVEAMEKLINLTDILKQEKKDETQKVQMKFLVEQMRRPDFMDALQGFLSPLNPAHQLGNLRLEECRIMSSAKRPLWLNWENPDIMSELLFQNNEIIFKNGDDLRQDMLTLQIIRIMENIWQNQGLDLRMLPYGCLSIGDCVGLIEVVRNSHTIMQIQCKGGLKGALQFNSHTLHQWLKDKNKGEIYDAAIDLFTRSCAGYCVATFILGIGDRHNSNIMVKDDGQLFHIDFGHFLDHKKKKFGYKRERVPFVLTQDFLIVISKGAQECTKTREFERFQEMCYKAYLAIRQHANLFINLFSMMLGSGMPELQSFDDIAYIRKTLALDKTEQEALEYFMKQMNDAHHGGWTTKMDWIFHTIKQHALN
Sequence (P27986 whole entry partner): as the sequence (P27986 whole entry partner) above
Assay: PI3K subtype enzyme inhibition
Assay type: biochemical
Conditions: mean ± SEM; read-out: PI3K Subtype Inhibition Activity PI3Kα
pIC50: −log10 of the molar value.
ASSAY METRIC: pIC50

1) O=C(NOCCOCCOCCOCCN1CCN(c2nc(N3CCOCC3)nc(-n3c(C(F)F)nc4ccccc43)n2)CC1)c1ccc(F)c(F)c1Nc1ccc(I)cc1F [Compound 14] = 6.33
2) O=C(NOCCOCCOCCOCCC(=O)N1CCN(c2nc(N3CCOCC3)nc(-n3c(C(F)F)nc4ccccc43)n2)CC1)c1ccc(F)c(F)c1Nc1ccc(I)cc1F [ST-168] = 7.16

----------
Target: PI3Kδ (Homo sapiens, UniProt O00329)
Construct: purchased Life Technologies (assay run by the vendor)
Test: PI3K subtype enzyme inhibition
Format: biochemical
Conditions: read-out: PI3Kδ IC50
Catalogue of IC50 readings, one per entry.
ASSAY METRIC: IC50 (pM)

1) O=S(=O)(Nc1cc(-c2ccc3ncc(N4CCNCC4)nc3c2)cnc1Cl)c1ccc(F)cc1 [ST-5-27] = 830
2) O=C(NOCCOCCOCCOCCC(=O)N1CCN(c2cnc3ccc(-c4cnc(Cl)c(NS(=O)(=O)c5ccc(F)cc5)c4)cc3n2)CC1)c1ccc(F)c(F)c1Nc1ccc(I)cc1F [ST-182] = 4220

----------
Target: PI3Kγ (Homo sapiens, UniProt P48736)
Construct: purchased Life Technologies (assay run by the vendor)
Test: PI3K subtype enzyme inhibition
Format: biochemical
Details: read-out: PI3K Subtype Enzyme Inhibition Data IC50 PI3Kγ
IC50 by entry:
ASSAY METRIC: IC50 (nM)

1) CC(=O)NCCNc1nc(N2CCOCC2)nc(-n2c(C(F)F)nc3ccccc32)n1 = 54
2) CNC(=O)CCNc1nc(N2CCOCC2)nc(-n2c(C(F)F)nc3ccccc32)n1 = 67
3) NCCNc1nc(N2CCOCC2)nc(-n2c(C(F)F)nc3ccccc32)n1 = 771
4) CNCCNc1nc(N2CCOCC2)nc(-n2c(C(F)F)nc3ccccc32)n1 = 681
5) CC(=O)N1CCN(c2nc(N3CCOCC3)nc(-n3c(C(F)F)nc4ccccc43)n2)CC1 = 21

----------
Molecular target: PI3Kβ (Homo sapiens, UniProt P42338)
Construct: purchased Life Technologies (assay run by the vendor)
Sequence (P42338 whole entry): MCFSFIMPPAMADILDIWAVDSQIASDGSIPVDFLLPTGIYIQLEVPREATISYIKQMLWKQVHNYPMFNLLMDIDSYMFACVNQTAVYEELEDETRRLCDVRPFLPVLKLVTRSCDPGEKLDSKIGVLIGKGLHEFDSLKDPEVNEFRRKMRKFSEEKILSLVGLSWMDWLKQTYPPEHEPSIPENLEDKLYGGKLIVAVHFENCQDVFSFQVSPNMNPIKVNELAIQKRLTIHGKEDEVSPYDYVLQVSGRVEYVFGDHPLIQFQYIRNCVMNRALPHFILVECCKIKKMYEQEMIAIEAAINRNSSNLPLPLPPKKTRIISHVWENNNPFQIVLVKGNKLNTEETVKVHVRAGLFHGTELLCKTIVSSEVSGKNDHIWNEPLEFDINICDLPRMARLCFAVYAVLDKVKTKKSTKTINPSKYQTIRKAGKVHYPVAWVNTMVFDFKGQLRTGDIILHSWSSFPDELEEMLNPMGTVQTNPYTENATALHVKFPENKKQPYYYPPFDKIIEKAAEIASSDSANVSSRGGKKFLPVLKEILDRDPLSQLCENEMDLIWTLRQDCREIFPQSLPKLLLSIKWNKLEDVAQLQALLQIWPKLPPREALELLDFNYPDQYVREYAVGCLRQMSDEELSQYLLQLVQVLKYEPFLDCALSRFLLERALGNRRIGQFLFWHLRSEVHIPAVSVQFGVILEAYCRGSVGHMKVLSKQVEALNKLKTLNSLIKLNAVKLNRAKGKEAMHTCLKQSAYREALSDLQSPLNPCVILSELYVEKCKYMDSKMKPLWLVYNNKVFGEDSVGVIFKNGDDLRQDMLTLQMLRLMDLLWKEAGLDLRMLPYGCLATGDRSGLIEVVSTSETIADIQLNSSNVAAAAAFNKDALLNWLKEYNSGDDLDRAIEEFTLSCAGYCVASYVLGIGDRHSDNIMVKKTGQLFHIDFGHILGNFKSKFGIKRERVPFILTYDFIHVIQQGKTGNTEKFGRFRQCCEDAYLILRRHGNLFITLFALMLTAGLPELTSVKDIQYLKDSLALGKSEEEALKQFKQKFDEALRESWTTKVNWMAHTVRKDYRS
Sequence (P27986 whole entry partner): as the sequence (P27986 whole entry partner) above
Test: PI3K subtype enzyme inhibition
Type: biochemical
Conditions: table of additional PI3K inhibitors; read-out: PI3Kβ IC50
ASSAY METRIC: IC50

1. NCCNc1nc(N2CCOCC2)nc(-n2c(C(F)F)nc3ccccc32)n1 [ST-177] = 2120 nM
2. COCCNc1nc(N2CCOCC2)nc(-n2c(C(F)F)nc3ccccc32)n1 [ST-178] = 208 nM
3. OCCNc1nc(N2CCOCC2)nc(-n2c(C(F)F)nc3ccccc32)n1 [ST-187] = 71 nM
4. CC(=O)N1CCN(c2nc(N3CCOCC3)nc(-n3c(C(F)F)nc4ccccc43)n2)CC1 [ST-5-03] = 14.3 nM
5. CNCCNc1nc(N2CCOCC2)nc(-n2c(C(F)F)nc3ccccc32)n1 [ST-5-02] = 2900 nM
6. CNC(=O)CCNc1nc(N2CCOCC2)nc(-n2c(C(F)F)nc3ccccc32)n1 [ST-5-21] = 431 nM
7. O=C(O)CCNc1nc(N2CCOCC2)nc(-n2c(C(F)F)nc3ccccc32)n1 [ST-5-25] = 787 nM
8. NOCCOCCOCCOCCC(=O)N1CCN(c2nc(N3CCOCC3)nc(-n3c(C(F)F)nc4ccccc43)n2)CC1 [ST-167] = 214 nM
